Numbers sourced from the Human Domainome abundance scans (Beltran et al. 2025).

Reported abundance fitness by item:
B1: Tesmin, residues 368 to 403; numbered along this chain, Q9Y4I5 (parent)
chain: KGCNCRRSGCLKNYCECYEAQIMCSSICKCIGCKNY

# Variants of: B1
# experiment summary: abundance fitness (aPCA) (normalised: wild type 0, dead -1); higher = more abundant; growth selection in yeast, the domain comes from the species named
# measurement parameters: Homo sapiens
Please give only the number in your answer, with no unit.

Solved entries:
C10S | -0.213
Y18L | -0.353
C24S | -0.201
N4T | -0.186
C30M | -1.15
I27C | -1.72
M23L | -0.462
G2K | -0.565

Ask | // abundance fitness lookup, key: `C5I`
Reply | -0.936

Ask | // abundance fitness lookup, key: `C3L`
Reply | -0.677
